Target: T1, S1-Fc (SARS-CoV-2, UniProt P0DTC2 14-685)
T1 construct: also called S1 Fc fusion protein
Test: phage ELISA
Reported metric: specificity ELISA, percent binding relative to Acro S1 (%)
Please reply with the bare figure in % and do not write the unit itself.

Binder	Value unit	Recorded number
variant 2-5 (antibody, V domains shown) VH: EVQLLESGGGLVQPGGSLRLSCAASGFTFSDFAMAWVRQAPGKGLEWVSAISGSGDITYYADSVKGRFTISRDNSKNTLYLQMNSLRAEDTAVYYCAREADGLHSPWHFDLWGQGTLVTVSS VL: DIQMTQSPSSLSASVGDRVTITCRASQSIHTYLNWYQQKPGKAPKLLIYAASALASGVPSRFSGSGSGTDFTLTISSLQPEDFATYYCQQSYSAPPYTFGQGTKVEIK	%	63.3
variant 2-8 (antibody, V domains shown) VH: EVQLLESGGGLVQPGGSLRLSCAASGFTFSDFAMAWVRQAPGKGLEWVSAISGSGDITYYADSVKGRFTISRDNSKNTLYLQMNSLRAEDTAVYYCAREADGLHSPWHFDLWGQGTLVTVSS VL: DIQMTQSPSSLSASVGDRVTITCRASQSIDTYLNWYQQKPGKAPKLLIYAASALASGVPSRFSGSGSGTDFTLTISSLQPEDFATYYCQQSYSAPPYTFGQGTKVEIK	%	15

Using known records, supply specificity ELISA, percent binding relative to Acro S1 for variant 2-12 (antibody, V domains shown) VH: EVQLLESGGGLVQPGGSLRLSCAASGFTFSDYPMNWVRQAPGKGLEWVSTISGSGGITFYADSVKGRFTISRDNSKNTLYLQMNSLRAEDTAVYYCVRHDEYSFDYWGQGTLVTVSS VL: DIQMTQSPSSLSASVGDRVTITCRASQSIDNYLNWYQQKPGKAPKLLIYGVSALQSGVPSRFSGSGSGTDFTLTISSLQPEDFATYYCQQSHSAPPYFFGQGTKVEIK
37
